# reported pIC50; entries follow
Target: CRTH2 (Homo sapiens)
Construct: polymorphonuclear cells (0.5 ml; 10^6/ml cells) in PBS containing 0.9 mM CaCl2 and 0.5 mM MgCl2; endogenous in cells; host or cells: polymorphonuclear cells (eosinophils gated by flow cytometry)
Test: DPBS CD11b Antagonist Assay
Type: cell-based
Conditions: polymorphonuclear cells in PBS, eosinophil CD11b expression, challenge with 15R-Methyl-PGD2 (10 nM)
Procedure: DPBS CD11b Antagonist Assay. The potential CRTH2 antagonist activity of certain compounds was tested using a CD11b expression assay using essentially the method described by Monneret et al. (J Pharmacol Exp Ther 304:349-55, 2003). […] The distribution of fluorescence intensities among 60,000 cells was measured by flow cytometry. Eosinophils were gated out on the basis of their granularity (high side scatter) and labeling with VLA-4 (PE fluorescence). […]
pIC50: −log10 of the molar value.

Past entries and their recorded results:
COC(=O)Cn1c(C)c(Cc2ccccc2S(=O)(=O)N2CCCC2)c2c1CC(C)(C)CC2=O [Example I-58]
7.00 to 8.30
Cc1c(Cc2ccccc2S(=O)(=O)N(C)c2ccccc2)c2c(n1CC(=O)O)CC(C)(C)CC2=O [Example I-49]
> 8.30
Cc1c(Cc2ccccc2S(=O)(=O)N2CCCC2)c2c(n1CC(=O)O)CCC(C)(C)C2 [Example I-14]
> 8.30

For the compound shown here, CCOC(=O)N1CCN(S(=O)(=O)c2ccc(Cc3c4c(n(CC(=O)O)c3C)CCC(C)(C)C4)cc2)CC1 [Example I-12] , give the reported pIC50.
> 8.30

* * *

biological target: CRTH2 (Homo sapiens, UniProt Q9Y5Y4); construct: polymorphonuclear cells (0.5 ml; 10^6/ml cells) in PBS containing 0.9 mM CaCl2 and 0.5 mM MgCl2; endogenous in cells; host or cells: polymorphonuclear cells (eosinophils gated by flow cytometry); test: DPBS CD11b Antagonist Assay; format: cell-based; details: polymorphonuclear cells in PBS, eosinophil CD11b expression, challenge with 15R-Methyl-PGD2 (10 nM)
Sequence (Q9Y5Y4 whole entry): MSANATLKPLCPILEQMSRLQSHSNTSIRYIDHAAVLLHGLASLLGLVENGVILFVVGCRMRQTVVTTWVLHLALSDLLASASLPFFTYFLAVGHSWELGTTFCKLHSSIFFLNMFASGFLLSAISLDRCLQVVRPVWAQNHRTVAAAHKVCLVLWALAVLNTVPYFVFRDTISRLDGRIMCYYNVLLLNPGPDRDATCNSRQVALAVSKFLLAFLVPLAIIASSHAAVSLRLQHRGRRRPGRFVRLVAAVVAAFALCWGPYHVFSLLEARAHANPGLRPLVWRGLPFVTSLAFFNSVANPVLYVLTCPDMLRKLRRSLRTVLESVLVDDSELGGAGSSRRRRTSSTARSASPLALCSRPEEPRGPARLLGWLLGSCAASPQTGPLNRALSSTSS
quantity.name: IC50

Past entries and their recorded results:
Cc1c(Cc2ccc(S(=O)(=O)NC(C)C(C)(C)C)cc2)c2c(n1CC(=O)O)CCCC2 (stereo not drawn)
< 5 nM
Cc1c(Cc2ccccc2S(=O)(=O)N2CCCC2)c2c(n1CC(=O)O)CC(C)(C)C(F)(F)C2=O
< 5 nM
Cc1c(Cc2ccc(S(=O)(=O)N3CCCC3)cc2)c2c(n1CC(=O)O)CCC2
5 to 100 nM
Cc1c(Sc2ccc(S(=O)(=O)N3CCOCC3)cc2)c2c(n1CC(=O)O)CCC(C)(C)C2
< 5 nM

For the compound shown here, `Cc1c(Cc2ccccc2S(=O)(=O)N2CCOCC2)c2c(n1[C@H](C)C(=O)O)CCC(C)(C)C2` , give the reported IC50.
< 5 nM

* * *

tested on: DK-PGD2-induced systemic eosinophilia; assay: DK-PGD2-Induced Systemic Eosinophilia in Rats; format: in vivo; conditions: Rattus norvegicus, Eosinophil; female Sprague-Dawley rats, oral dosing 30 min before intracardiac 10 μg DK-PGD2, blood eosinophils at 60 min
# reported ED50; entries follow

Cc1c(Cc2ccccc2S(=O)(=O)N2CCCC2)c2c(n1CC(=O)OC(C)C)CC(C)(C)CC2=O
< 1 mg/kg
Cc1c(Cc2ccccc2S(=O)(=O)N2CCCC2)c2c(n1CC(=O)O)CC(C)(C)CC2=O
< 1 mg/kg
Cc1c(Cc2ccc(S(=O)(=O)N3CCCC3)cc2)c2c(n1CC(=O)O)CCCC2
1 to 10 mg/kg

For the compound shown here, `Cc1c(Cc2ccccc2S(=O)(=O)c2ccccc2)c2c(n1CC(=O)O)CCC(C)(C)C2` , give the reported ED50.
< 1 mg/kg

For the compound shown here, `CCOC(=O)Cn1c(C)c(Cc2ccccc2S(=O)(=O)N2CCCC2)c2c1CC(C)(C)CC2=O` , give the reported ED50.
< 1 mg/kg
